For each record, write down the corresponding inhibition in vivo at 100 mg/kg.
- System: Rattus norvegicus
- protocolDetails: Antiinflammatory activity against carrageenan-induced fisher 344 rat paw edema model assessed as inhibition of granuloma at 100 mg/kg
- Type: functional
One number for each entry, in %.

Previously resolved entries follow.
{"compound": "CCOC(=O)C1=c2cc(Br)sc2=C(C)OP1(=O)OCC (stereo unspecified)", "u": "%", "inhibition in vivo at 100 mg/kg": 60.4}
{"compound": "CCOP1(=O)OC2(C)C(=O)C=CC2(C)C1C#N (stereo unspecified)", "u": "%", "inhibition in vivo at 100 mg/kg": 66.6}

Your task in this section: give inhibition in vivo at 100 mg/kg for each listed record.
1. CCOP1(=O)OC2(C)C(=O)C=CC2(C)C1C(=O)OC (stereo unspecified)
2. CCOP1(=O)OC(C)=c2sc(Br)cc2=C1C(=O)OC (stereo unspecified)
3. CCOP1(=O)OC(C)=c2sc(Br)cc2=C1C#N (stereo unspecified)
4. CCOC(=O)C1C2(C)C=CC(=O)C2(C)OP1(=O)OCC (stereo unspecified)

[reply]
[63.2, 68.1, 62.8, 59.7]

###

- protocolDetails: Acute toxicity in ip dosed albino mouse after 24 hrs
- Type: organism-based
- conditionDescription: in vivo
quantityName: LD50 at 24 h

Your task in this section: give LD50 at 24 h for each listed record.
1. CCOC(=O)C1C2(C)C=CC(=O)C2(C)OP1(=O)OCC (stereo unspecified)
2. CCOP(=O)(/C=C\c1cc2c(s1)=C(C)OP(=O)(OCC)C=2C)OCC (stereo unspecified)
3. CCOP1(=O)OC(C)=c2sc(Br)cc2=C1C(=O)OC (stereo unspecified)

[reply]
> 300 µmol/kg
> 300 µmol/kg
> 300 µmol/kg
